Values from patent US20150335692A1

# SYSTEM_UNDER_TEST: heparanase (Homo sapiens)
# Construct: the resulting supernatant was used as a cell extract; endogenous in cells
# Sequence (Q9Y251 158-543 limits assumed): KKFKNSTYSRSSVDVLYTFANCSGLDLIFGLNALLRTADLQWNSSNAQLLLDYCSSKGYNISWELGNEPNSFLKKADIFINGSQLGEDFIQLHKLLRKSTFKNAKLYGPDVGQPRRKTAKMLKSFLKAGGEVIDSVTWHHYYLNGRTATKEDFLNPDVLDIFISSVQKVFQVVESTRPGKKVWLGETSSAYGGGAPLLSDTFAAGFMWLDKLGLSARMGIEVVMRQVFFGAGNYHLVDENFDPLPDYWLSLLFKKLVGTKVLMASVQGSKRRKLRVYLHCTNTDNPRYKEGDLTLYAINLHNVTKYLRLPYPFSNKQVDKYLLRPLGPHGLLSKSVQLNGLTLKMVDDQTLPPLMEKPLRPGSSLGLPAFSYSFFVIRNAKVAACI
# Sequence (Q9Y251 36-109 limits assumed): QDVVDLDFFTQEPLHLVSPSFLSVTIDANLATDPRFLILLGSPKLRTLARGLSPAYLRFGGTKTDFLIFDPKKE
# TEST_DESCRIPTION: Primary evaluation: heparanase activity inhibition, A431 cell extract on biotinylated heparan sulfate-immobilized plate
# CONDITION: 2 hours at 37° C., DMSO control
READOUT_NAME: pIC50
Kindly note that pIC50 refers to -log10 of the concentration in mol/L and answer with the value alone.

Task item: Data request, read-out pIC50, for Nc1ccc(-c2nc3ccccc3[nH]2)cc1
Reply: 3.59
